- protocol: RPL19A-GFP modulators, yeast TOR pathway, confirmation, cell-based, S. cerevisiae, flow cytometry, cherry picks, mother/daughter gates (AID 2270)
- assay_context: S. cerevisiae RPL19A-GFP strain, 3 h, measured here: daughter cell gate, at 10 µM, stronger effect = lower value, 100 = same GFP as DMSO wells
endpoint_name: GFP response vs DMSO (%)

{"columns": ["molecule", "endpoint_name", "observed_measurement"],
 "data": [
  ["Cc1nnc(NC(=O)c2nc(S(=O)(=O)Cc3ccccc3C)ncc2Cl)s1", "GFP response vs DMSO", 96.4],
  ["N#C/C(=C\\c1cccc(Oc2ccccc2)c1)C(=O)N1CCOCC1", "GFP response vs DMSO", 97.8],
  ["O=C(O)COc1c(-c2ccc(Cl)cc2)oc2ccccc2c1=O", "GFP response vs DMSO", 95.4],
  ["Cc1cccn2c(=O)c(/C=C(\\C#N)C(=O)NCc3ccco3)c(N3CCOCC3)nc12", "GFP response vs DMSO", 101],
  ["CC(=O)Oc1oc(-c2ccccc2)nc1C=Nc1ccccc1", "GFP response vs DMSO", 101],
  ["COc1cc(NC(=O)c2oc3ccccc3c2C)ccc1NC(=O)c1ccco1", "GFP response vs DMSO", 97.8],
  ["C=CCNC(=S)N/N=C(\\C)c1cccc(OC)c1", "GFP response vs DMSO", 102],
  ["COC(=O)c1ccc(C(=O)NC(=S)Nc2ccc3nc(SC)sc3c2)cc1", "GFP response vs DMSO", 97.6],
  ["CC(C)(C)c1cc(C(c2cccnc2)N2CCN(CCO)CC2)cc(C(C)(C)C)c1O (configuration not stated)", "GFP response vs DMSO", 108],
  ["COc1cccc(-c2nnc(NC(=O)c3ccc(S(=O)(=O)N(CC(C)C)CC(C)C)cc3)o2)c1", "GFP response vs DMSO", 99.8],
  ["O=C(Nc1c(-c2ccccc2)nc2ccccn12)c1ccco1", "GFP response vs DMSO", 102],
  ["COc1ccccc1OCC(=O)Sc1ccc(C)cc1", "GFP response vs DMSO", 96.7],
  ["COc1cc(NC(=O)c2cccc(C)c2)ccc1NC(=O)c1cc2ccccc2o1", "GFP response vs DMSO", 103],
  ["COc1ccc(N2C(=O)c3cccc4cccc(c34)C2=O)nn1", "GFP response vs DMSO", 97.3],
  ["O=S(=O)(c1ccc(Oc2ccc(Br)cc2)cc1)N1CCOCC1", "GFP response vs DMSO", 102],
  ["CC1CCc2c(C(=O)NCc3cccnc3)csc2C1 (configuration not stated)", "GFP response vs DMSO", 94.2],
  ["CC(C)(C)C(=O)NCC12C=CC(O1)C1C(=O)N(c3ccccc3)C(=O)C12 (configuration not stated)", "GFP response vs DMSO", 96.1],
  ["CN(C)c1ccc(/C=C/c2ccc3ccccc3[n+]2C)cc1", "GFP response vs DMSO", 90],
  ["COc1cccc(CNC(=O)CCC(=O)N2Cc3cccc(OC)c3Oc3ncccc32)c1OC", "GFP response vs DMSO", 99.9],
  ["CC(C)n1c(=S)[nH]c2c1c(=O)[nH]c(=O)n2C", "GFP response vs DMSO", 97.3],
  ["Cc1cccc(C(=O)NNC(=S)NC(=O)c2ccccc2)c1", "GFP response vs DMSO", 110],
  ["COc1ccc(C2CC(c3ccccc3)=NN2S(=O)(=O)c2ccc(C)cc2)c(OC)c1 (configuration not stated)", "GFP response vs DMSO", 98.8]
]}
